Value source: patent US8501946B2

Overview of recorded IC50 for various molecules
# testedOn: human recombinant P2X7 receptors (Homo sapiens)
# Construct: expressed in transfected cells
# protocolNotes: Ethidium Accumulation Assay 1 (HEK293 cells, ATP-induced ethidium uptake)
# Type: cell-based
# conditionDescription: HEK293 cells expressing human P2X7; 1 mM ATP; sometimes mean of more than one measurement; read-out: Assay 1 (antagonist pIC50 for blocking ATP responses) (converted)

What reported IC50 corresponds to Cc1cccnc1-c1nnc2n1CCN(C(=O)c1ccc(F)cc1Cl)C2 on human recombinant P2X7 receptors (Homo sapiens)?
< 100 nM

---
Fill in the recorded IC50 for this molecule, with human recombinant P2X7 receptors (Homo sapiens) as test system: O=C(c1cccc(Cl)c1Cl)N1CCn2c(nnc2-c2cccc(F)n2)C1
< 100 nM

What do you have for N#Cc1ccccc1C(=O)N1CCn2c(nnc2-c2ccccn2)C1 ?
< 100 nM

Try the molecule O=C(c1ccccc1Cl)N1CCn2c(nnc2-c2ccc(F)cc2)C1
< 100 nM

Let us now turn to Cc1cccnc1-c1nnc2n1CCN(C(=O)c1cccc(C(F)(F)F)c1Cl)C2
< 10 nM

What do we get for O=C(c1ccccc1Cl)N1CCn2c(nnc2-c2cscn2)C1 ?
< 10 nM

Next molecule: O=C(c1ccc(F)cc1Cl)N1CCn2c(nnc2-c2cccc(Cl)c2Cl)C1
< 100 nM

// repeat for O=C(c1cccc(C(F)(F)F)c1Cl)N1CCn2c(nnc2N2CCCC2)C1 and report
< 100 nM

Try the molecule O=C(c1ccc(Cl)cc1Cl)N1CCn2c(nnc2-c2ncccc2F)C1
< 100 nM

---

# testedOn: human recombinant P2X7 receptors (Homo sapiens)
# Construct: expressed in transfected cells
# Sequence (Q99572 1-595): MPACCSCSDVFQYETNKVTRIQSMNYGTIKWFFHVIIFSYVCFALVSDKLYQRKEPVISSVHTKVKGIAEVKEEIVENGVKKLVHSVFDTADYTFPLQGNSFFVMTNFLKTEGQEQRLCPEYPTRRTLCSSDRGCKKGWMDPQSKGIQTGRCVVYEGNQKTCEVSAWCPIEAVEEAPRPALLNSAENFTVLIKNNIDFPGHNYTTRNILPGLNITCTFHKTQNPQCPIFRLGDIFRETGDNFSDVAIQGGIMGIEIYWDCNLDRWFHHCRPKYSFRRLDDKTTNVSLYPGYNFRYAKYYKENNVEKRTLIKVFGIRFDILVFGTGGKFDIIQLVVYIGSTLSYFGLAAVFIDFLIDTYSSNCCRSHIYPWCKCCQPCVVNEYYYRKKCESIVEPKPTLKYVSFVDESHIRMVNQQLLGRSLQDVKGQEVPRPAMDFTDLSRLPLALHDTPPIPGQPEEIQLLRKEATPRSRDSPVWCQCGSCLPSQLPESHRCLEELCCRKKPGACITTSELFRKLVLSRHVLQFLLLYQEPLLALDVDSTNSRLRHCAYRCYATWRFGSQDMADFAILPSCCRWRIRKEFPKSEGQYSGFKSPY
# protocolNotes: Ethidium Accumulation Assay 1 (HEK293 cells, ATP-induced ethidium uptake)
# Format: cell-based
# conditionDescription: HEK293 cells expressing human P2X7; 1 mM ATP; sometimes mean of more than one measurement; read-out: Assay 1 (antagonist pIC50 for blocking ATP responses) (converted)
endpointName: IC50

Below, 8 compounds whose answers are already recorded.
Value wanted: IC50 (human recombinant P2X7 receptors (Homo sapiens)) of entry O=C(c1ccc(F)cc1Cl)N1CCn2c(nnc2-c2cscn2)C1 [Example 90]
< 0.01 µM

Similarly, O=C(c1ccc(F)c(Cl)c1Cl)N1CCn2c(nnc2-c2ccc(F)cn2)C1 [Example 114] ?
< 0.01 µM

Now try Cn1ccc(-c2nnc3n2CCN(C(=O)c2cccc(Cl)c2Cl)C3)n1 [Example 63] .
< 0.01 µM

Lookup O=C(c1cccc(C(F)(F)F)c1Cl)N1CCn2c(nnc2-c2ccncc2)C1 [Example 10]
< 0.1 µM

Item: O=C(c1ccc(Cl)cc1Cl)N1CCn2c(nnc2-c2ccc(F)cn2)C1 [Example 95]
< 0.1 µM

What do you get for Cc1cccc(-c2nnc3n2CCN(C(=O)c2cccc(C(F)(F)F)c2Cl)C3)n1 [Example 26] ?
< 0.01 µM

Then O=C(c1ccc(Cl)cc1Cl)N1CCn2c(nnc2-c2cscn2)C1 [Example 97] ?
< 0.01 µM

Please do the same for Cc1nc(-c2nnc3n2CCN(C(=O)c2ccc(F)cc2Cl)C3)cs1 [Example 136] as well.
< 0.501 µM

Now examine the next entry.
Missing value: IC50, human recombinant P2X7 receptors (Homo sapiens), entry O=C(c1cccc(Cl)c1Cl)N1CCn2c(nnc2-c2cccnc2)C1 [Example 61] . Fill in?
< 0.01 µM

---

# testedOn: human recombinant P2X7 receptors (Homo sapiens)
# Construct: expressed in transfected cells
# Sequence (Q99572 1-595): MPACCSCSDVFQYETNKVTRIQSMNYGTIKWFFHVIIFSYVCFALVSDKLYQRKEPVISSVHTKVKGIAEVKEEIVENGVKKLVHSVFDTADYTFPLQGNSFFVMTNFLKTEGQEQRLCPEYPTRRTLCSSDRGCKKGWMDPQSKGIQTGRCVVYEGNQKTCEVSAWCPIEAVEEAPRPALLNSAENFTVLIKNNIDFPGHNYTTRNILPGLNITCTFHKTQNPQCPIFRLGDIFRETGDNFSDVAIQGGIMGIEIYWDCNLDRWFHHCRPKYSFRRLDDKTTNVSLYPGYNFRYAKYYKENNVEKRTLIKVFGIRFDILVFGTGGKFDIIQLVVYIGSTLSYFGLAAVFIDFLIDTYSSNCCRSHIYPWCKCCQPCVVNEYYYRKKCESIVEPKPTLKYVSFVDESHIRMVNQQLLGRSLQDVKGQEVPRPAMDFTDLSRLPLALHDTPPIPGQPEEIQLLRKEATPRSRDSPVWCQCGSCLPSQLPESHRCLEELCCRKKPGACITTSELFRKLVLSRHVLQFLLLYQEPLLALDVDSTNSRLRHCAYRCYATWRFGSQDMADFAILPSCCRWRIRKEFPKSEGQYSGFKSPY
# protocolNotes: Ethidium Accumulation Assay 1 (HEK293 cells, ATP-induced ethidium uptake)
# Assay type: cell-based
# conditionDescription: HEK293 cells expressing human P2X7; 1 mM ATP; sometimes mean of more than one measurement; read-out: Assay 1 (antagonist pIC50 for blocking ATP responses) (converted)
endpointName: IC50

These solved cases illustrate the format of a correct answer.
Entry O=C(c1c(Cl)cccc1Cl)N1CCn2c(nnc2-c2ccccn2)C1 : reported IC50 = ?
< 501 nM

Quick one: Cc1cc(-c2nnc3n2CCN(C(=O)c2cccc(Cl)c2Cl)C3)no1
< 100 nM

Next entry: O=C(c1cccc(Cl)c1Cl)N1CCn2c(nnc2-c2cccnn2)C1
< 100 nM

Same lookup for O=C(c1ccc(F)cc1Cl)N1CCn2c(nnc2-c2cccc(F)c2)C1 , please.
< 100 nM

Also need O=C(c1ccc(F)cc1Cl)N1CCn2c(nnc2-c2ccccc2)C1 , thanks.
< 100 nM

Note: attention shifts to another entry.
Reported IC50 for O=C(c1cccc(C(F)(F)F)c1Cl)N1CCn2c(nnc2-c2ccncn2)C1 : what is it?
< 100 nM

---

# testedOn: human recombinant P2X7 receptors (Homo sapiens, UniProt Q99572)
# Construct: expressed in transfected cells
# Sequence (Q99572 1-595): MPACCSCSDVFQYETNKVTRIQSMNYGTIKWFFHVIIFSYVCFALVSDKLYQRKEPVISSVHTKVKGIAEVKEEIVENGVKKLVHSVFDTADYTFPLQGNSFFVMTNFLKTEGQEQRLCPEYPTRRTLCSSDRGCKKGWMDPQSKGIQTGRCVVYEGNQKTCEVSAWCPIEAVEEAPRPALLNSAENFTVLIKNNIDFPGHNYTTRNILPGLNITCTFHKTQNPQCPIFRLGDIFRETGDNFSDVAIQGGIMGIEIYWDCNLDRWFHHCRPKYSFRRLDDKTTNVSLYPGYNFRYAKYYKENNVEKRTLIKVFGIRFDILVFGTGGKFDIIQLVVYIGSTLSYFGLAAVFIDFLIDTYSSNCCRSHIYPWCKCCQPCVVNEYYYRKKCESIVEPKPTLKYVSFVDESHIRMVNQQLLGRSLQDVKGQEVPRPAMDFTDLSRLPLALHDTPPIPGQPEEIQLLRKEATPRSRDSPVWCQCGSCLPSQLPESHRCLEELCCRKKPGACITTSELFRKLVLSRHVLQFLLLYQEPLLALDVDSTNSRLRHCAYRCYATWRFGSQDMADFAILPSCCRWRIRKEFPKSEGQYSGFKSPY
# protocolNotes: Ethidium Accumulation Assay 2 (HEK293 cells, ATP-induced ethidium uptake)
# Assay type: cell-based
# conditionDescription: HEK293 cells expressing human P2X7; sometimes mean of more than one measurement; read-out: Assay 2 (antagonist pIC50 for blocking ATP responses) (converted)
endpointName: IC50

Lookup: IC50 / human recombinant P2X7 receptors (Homo sapiens, UniProt Q99572) / O=C(c1ccc(F)cc1Br)N1CCn2c(nnc2-c2cnccn2)C1
< 10 nM

Please do the same for O=C(c1ccc(Cl)cc1Cl)N1CCn2c(nnc2-c2ccon2)C1 as well.
< 501 nM

Same lookup for O=C(c1ccc(F)cc1Cl)N1CCn2c(nnc2-c2cnc(F)cn2)C1 , please.
< 100 nM

Try the compound Cc1scnc1-c1nnc2n1CCN(C(=O)c1ccc(Cl)c(F)c1Cl)C2
< 10 nM

Okay, and O=C(c1ccc(Cl)c(F)c1Cl)N1CCn2c(nnc2-c2cncs2)C1 ?
< 100 nM

How about this compound: CCc1nnc2n1CCN(C(=O)c1cccc(C(F)(F)F)c1Cl)C2
< 100 nM

# repeat for O=C(c1ccc(Cl)c(F)c1Cl)N1CCn2c(nnc2-n2cccn2)C1
< 100 nM

Cc1c(Cl)cccc1C(=O)N1CCn2c(nnc2-c2nccs2)C1 , same question.
< 100 nM

***
# get_value(readout= IC50, system= human recombinant P2X7 receptors (Homo sapiens, UniProt Q99572)) for Cc1c(C(=O)N2CCn3c(nnc3-c3ncns3)C2)ccc(F)c1Cl
< 10 nM

Moving on to Cc1c(C(=O)N2CCn3c(nnc3-c3nccs3)C2)ccc(F)c1Cl
< 10 nM

Another: O=C(c1cccc(Cl)c1Cl)N1CCn2c(nnc2-c2ncns2)C1
< 10 nM

Now the same for O=C(c1ccc(Cl)c(F)c1Cl)N1CCn2c(nnc2-c2cccnc2O)C1
< 100 nM

One more compound: O=C(c1ccc(Cl)c(F)c1Cl)N1CCn2c(nnc2-c2cscn2)C1
< 10 nM
